tested.target: CCR2 (Homo sapiens, UniProt P41597)
Construct: Membranes were prepared from THP-1 cells; endogenous in cells; host or cells: THP-1 cells (membrane preparation)
Sequence (P41597 1-360 isoform P41597-2): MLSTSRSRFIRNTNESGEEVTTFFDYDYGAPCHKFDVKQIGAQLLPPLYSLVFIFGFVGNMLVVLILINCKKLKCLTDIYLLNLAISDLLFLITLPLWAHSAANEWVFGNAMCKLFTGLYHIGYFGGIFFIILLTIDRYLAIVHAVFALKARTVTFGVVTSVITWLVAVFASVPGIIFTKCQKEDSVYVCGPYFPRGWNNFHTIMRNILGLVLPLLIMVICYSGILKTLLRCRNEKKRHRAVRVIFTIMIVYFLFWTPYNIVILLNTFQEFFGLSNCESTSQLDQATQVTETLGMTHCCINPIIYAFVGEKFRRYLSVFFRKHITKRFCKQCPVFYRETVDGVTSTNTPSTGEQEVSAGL
protocol.details: CCR2 receptor membrane binding assay ([125I]MCP-1, THP-1 cell membranes, SPA beads)
run.parameters: @ 10 μM test compound; THP-1 membranes; read-out: CCR2 % ctrl @ 10 μM
Experimental: The above exemplary substances have been tested for binding to CCR2 using a binding assay as outlined herein below: THP-1 cells (human acute monocytic leukaemia cells) were cultured under standardized conditions at 37° C. and 5% CO2 in a humidified incubator. […] Perkin Elmer NEX 332 Jod 125 MCP-1, Stock: 2200 Ci/mmol solved in 2000 μl assay buffer, stored at −20° C. […] Bound radioactivity was determined by scintillation counter after 8 h. […]
The label is y for remaining activity at 10 µM below 20% and n for remaining activity at 10 µM equal to or exceeding 20%.

>>> print(df.to_string())
                                    compound  group
 0  Cc1c(NCc2ccc(C(C)(C)C)cc2)ncnc1C(=O)N1CCC(N2CCCC2)C1 (stereo not drawn)      n
 1  Cc1c(NCc2ccc(Cl)c(F)c2)ncnc1C(=O)N1CCC(N2CCC(N(C)S(C)(=O)=O)CC2)CC1      y
 2  Cc1c(NCCOc2ccccc2)ncnc1C(=O)N1CCC(N2CCC(O)CC2)CC1      n
 3  CCS(=O)(=O)N(C)C1CCN(C2CCN(C(=O)c3ncnc(NCc4ccc(C)c(Cl)c4)c3C)CC2)CC1      y
 4  Cc1c(NCCc2ccc(C(C)(C)C)cc2)ncnc1C(=O)N1CCC(N2CCC(N(C)S(C)(=O)=O)CC2)CC1      y
 5  Cc1c(NCc2ccc(C(C)(C)C)cc2)ncnc1C(=O)N1CCC(N2CC[C@@H](C(N)=O)C2)CC1      n
 6  Cc1c(NCc2ccc3occc3c2)ncnc1C(=O)N1CCC(N2CCC(O)CC2)CC1      n
 7  Cc1c(OCc2ccc(C(C)(C)C)cc2)ncnc1C(=O)N1CCC(N2CCC(NS(C)(=O)=O)CC2)CC1      y
 8  Cc1nc(NCc2ccc(Cl)c(Cl)c2)c(C)c(C(=O)N2CCC(N3CCC(O)CC3)CC2)n1      y
 9  Cc1c(NCc2ccc(C(F)(F)F)c(Cl)c2)ncnc1C(=O)N1CCC(N2CCC(NS(C)(=O)=O)CC2)CC1      y
10  Cc1c(NC[C@H]2CCC[C@H](c3ccccc3)C2)ncnc1C(=O)N1CCC(N2CCC(N(C)S(C)(=O)=O)CC2)CC1      y
11  Cc1c(NCc2ccc(Cl)c(Cl)c2)ncnc1C(=O)N1CCC(N2CCC(NS(C)(=O)=O)CC2)CC1      y
12  Cc1c(NCc2cccc(-c3ccccc3)c2)ncnc1C(=O)N1CCC(N2CCC(O)CC2)CC1      y
13  Cc1c(NCc2cnc3ccccc3c2)ncnc1C(=O)N1CCC(N2CCC(N(C)S(C)(=O)=O)CC2)CC1      n
14  Cc1c(NCCc2ccc(Cl)c(Cl)c2)ncnc1C(=O)N1CCC(N2CCC[C@H](O)C2)CC1      n
15  Cc1c(NCCc2ccccc2)ncnc1C(=O)N1CCC(N2CCC(O)CC2)CC1      n
16  Cc1ccc(CNc2ncnc(C(=O)N3CCC(N4CCOCC4)CC3)c2C)cc1Cl      y
17  Cc1c(NCCc2ccc(Cl)cc2)ncnc1C(=O)N1CCC(N2CCCCC2)CC1      y
18  Cc1c(NCCc2ccc(Cl)c(Cl)c2)ncnc1C(=O)N1CCC(N2CCOC(C)C2)CC1 (stereo not drawn)      y
19  Cc1c(NCc2ccc(Cl)c(Cl)c2)ncnc1C(=O)N1CCC(N2CCCOCC2)CC1      n
20  Cc1c(NCCc2ccc(Cl)c(Cl)c2)ncnc1C(=O)N1CCC(N2CCC[C@H](C(=O)N(C)C)C2)CC1      n
21  Cc1c(NCc2ccc(Cl)c(Cl)c2)ncnc1C(=O)N1CCC(N2CC[C@H](C(N)=O)C2)CC1      n
22  Cc1ccc(CNc2ncnc(C(=O)N3CCC(N4CCC(O)CC4)CC3)c2C)cc1C      n
23  Cc1c(NCc2ccc(C(C)(C)C)cc2)ncnc1C(=O)N1CCC(N2CCC[C@H]2CC(=O)N(C)C)CC1      n

Values were extracted from patent US8835440B2.
